System: NCI-H226 lung
Assay: NCI-60 one-dose screen, 48 h (100 = growth as untreated, 0 = no growth, -100 = all killed)
Details: 10 µM unless noted
The panel holds about 83,000 compounds, 20% with a hit somewhere; the sample as a whole holds those more often.
Documented growth across a set of compounds
ATTRIBUTE_MEASURED: growth (%)

* O=C(Nc1cccc(Cn2c(=O)[nH]c3ccc(Oc4ncccn4)cc3c2=O)c1)c1cccc(Cl)c1 | 68.6
* COc1ccc(-c2cc(-c3ccc(Nc4nc(Nc5ccc(Cl)cc5)nc(Nc5ccc(Cl)cc5)n4)cc3)no2)cc1 | 110
* COC(=O)c1nc(-c2ccccc2)oc1S(=O)(=O)N1CCN(c2ccc(OC)cc2)CC1 | 91.5
* C=C1/C(=C\C=C2/CCC[C@]3(C)[C@@H]([C@H](C)CCCC(C)(C)O)CC[C@@H]23)C[C@@H](OC(=O)CBr)C[C@@H]1O | 45.2
* O=C(Nc1ncc(Cc2ccccc2)s1)c1cc(-c2ccccc2)nc2ccccc12 | 89.3
* COCCNC(=O)Cc1cc(-c2ccc(Cl)cc2)n(-c2ccccc2)c1C | 89.8
* COC(=O)c1cc(-c2cc(OC)c(OC)c(OC)c2)[nH]c1N/N=C/c1c(Cl)cccc1Cl | 72.5
* CCOC(=O)c1c(N)sc2cc(O)ccc12 | 110
* CCCCC#Cc1c(I)n(C2OC(CO[Si](C)(C)C(C)(C)C)C3OC(C)(C)OC32)c(=O)[nH]c1=O (centres undefined) | 88.2
